Listing of entries alongside the reported normalized RNA/DNA level with ligand (log10).
B1: library; a variant is named by its letters at N, in order (parent)
chain: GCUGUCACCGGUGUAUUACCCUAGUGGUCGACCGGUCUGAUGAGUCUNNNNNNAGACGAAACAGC

# Variants of: B1
# measurement description: normalized RNA/DNA level with ligand (relative to sTRSVctl = 100) (log10 (% of sTRSVctl)); ligand: hypoxanthine (xanthine aptamer); higher = less ribozyme self-cleavage, higher mRNA level
# study conditions: ligand concentration (+) RNA-Seq: 5 mM, HEK293T, reporter: mCherry (pCS4076), ligand present: yes
The answer should be written as a number, with no unit following it.

Data request: Sample "UGGCGA" — what was its normalized RNA/DNA level with ligand (log10)?
Data returned: 1.94

Then this variant:
Data request: Report normalized RNA/DNA level with ligand (log10) for "GGGGCG" please.
Data returned: 1.93
